Target: T1, GLP-1R (INS1e assay) (UniProt P32301 22-463, limits assumed)
T1 sequence (looked up): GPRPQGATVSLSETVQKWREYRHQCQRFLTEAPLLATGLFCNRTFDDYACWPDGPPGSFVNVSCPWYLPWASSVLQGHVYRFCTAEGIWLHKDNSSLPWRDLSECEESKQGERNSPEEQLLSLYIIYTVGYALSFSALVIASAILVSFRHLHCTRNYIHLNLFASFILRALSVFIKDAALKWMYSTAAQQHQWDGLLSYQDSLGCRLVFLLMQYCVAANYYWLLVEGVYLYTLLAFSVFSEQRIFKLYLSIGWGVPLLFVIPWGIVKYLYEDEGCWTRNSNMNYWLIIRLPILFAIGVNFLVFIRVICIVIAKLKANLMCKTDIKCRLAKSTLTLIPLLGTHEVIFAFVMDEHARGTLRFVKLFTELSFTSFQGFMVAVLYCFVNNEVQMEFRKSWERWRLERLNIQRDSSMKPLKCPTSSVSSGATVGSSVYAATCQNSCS
Test: cell-based or functional assay
Starred links: 1 amine or outer side, 2 acyl side, 3 side chain; linkers in the order of their positions; H or OH if unused. Non-standard residues stand in square brackets, D forms with d. Groups on a side chain read outwards from the residue. Primed or numbered codes have the meaning given here. No end group written: not given here. *: point of attachment. γGlu = O=C(O)[C@H](CCC(=O)[*:2])N[*:1]; Stearoyl = CCCCCCCCCCCCCCCCCC(=O)*; αMeF = C[C@](N)(Cc1ccccc1)C(=O)O; αMeK = C[C@](N)(CCCCN)C(=O)O; αMeS = C[C@](N)(CO)C(=O)O; PEG2′ = not defined here; Aib = CC(C)(N)C(=O)O
Listing of entries alongside the reported INS1e assay EC50 GLP-1 R n2.
Reply numerically in nM, unit not repeated.

{"Binder": "H[Aib]EGSFTSDV[αMeS]S[αMeF]LEGEAAK([PEG2′-PEG2′-PEG2′-Stearoyl])E[αMeF]IA[αMeF]VV[αMeK]GG-NH2 [SEQ ID NO 51]", "Unit Of Measure": "nM", "INS1e assay EC50 GLP-1 R n2": 0.0207}

# input for lookup
Prompt: Item H[Aib]EGS[αMeF]TSDV[αMeS]S[αMeF]LEGEAA[αMeK]E[αMeF]IA[αMeF]VVK([PEG2′-PEG2′-γGlu-Stearoyl])GG-NH2 [SEQ ID NO 101] has what recorded INS1e assay EC50 GLP-1 R n2?
Completion: 6.65
